- tested.on: recombinant human ROR1 extracellular domain with a C-terminal 6xHis tag (human) (UniProt Q01973)
- Sequence (Q01973 other isoform, or with tags, fused parts or gaps): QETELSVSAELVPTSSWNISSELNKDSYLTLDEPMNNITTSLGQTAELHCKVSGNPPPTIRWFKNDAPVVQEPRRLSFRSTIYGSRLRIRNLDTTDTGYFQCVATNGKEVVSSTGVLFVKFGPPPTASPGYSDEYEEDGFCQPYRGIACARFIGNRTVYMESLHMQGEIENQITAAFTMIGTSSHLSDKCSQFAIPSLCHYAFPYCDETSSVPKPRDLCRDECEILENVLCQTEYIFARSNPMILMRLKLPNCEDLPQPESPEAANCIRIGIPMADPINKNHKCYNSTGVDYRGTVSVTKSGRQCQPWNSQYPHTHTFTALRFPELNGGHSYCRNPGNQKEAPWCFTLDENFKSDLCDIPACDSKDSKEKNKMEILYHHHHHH
- assay.explanation: SPR (Biacore), scFv-mFc captured on an anti-mouse IgG chip, ROR1 ECD 6xHis injected at 183, 61.0, 20.33, 6.78 and 2.26 nM, multi-cycle kinetics, 1:1 Binding model, 25 °C
Record form. Attribute: pKd. Fill in for each entry.
The meaning of pKd here: minus log10 of the concentration in molar units.

# query: pKd of entry anti-ROR1 scFv ROR1-2 fused to murine IgG2a Fc (scFv-mFc) (Fc fusion, part only; not given: murine IgG2a Fc and junction, not shown: another chain or arm of the molecule; a dimerising Fc or GST) scFv: QLQLQESGPGLVKPSETLSLTCTVSGGSINSTTSYWAWIRQPPGKGLEWIGTIFYSGKTYNNPSLKSRVTMSVDTSKNHFSLKVNSVTAADTAVYYCARFDYGFHDAFDIWGQGTMVTVSSGGGGSGGGGSGGGGSEIVMTQSPATLSLSPGERATLSCRASQSITSDYLSWYQQKPGQAPRLLIYGASTRATGIPARFSGSGSGTDFTLTISSLQPEDFVVYYCQQDYNLYTFGQGTKLEIKR 10.02

// pKd lookup, key: anti-ROR1 scFv ROR1-1 fused to murine IgG2a Fc (scFv-mFc) (Fc fusion, part only; not given: murine IgG2a Fc and junction, not shown: another chain or arm of the molecule; a dimerising Fc or GST) scFv: QVQLQESGPGLVKPSETLSLTCTVSGGSISNYYWSWIRQPAGKGLEWIGRIYTSGSTNYNPSLKSRVTMSVDTSKNQFSLKLSSLTAADTAIYYCARYYDILTGFFDYWGQGTLVTVSSGGGGSGGGGSGGGGSVIWMTQSPSLLSASTGDSVTISCRMSQDISSYLAWYQQKPGKAPELLIYAASSLQSGVPSRFSGSGSGTDFTLTISSLQSEDFATYYCQQYDSFPPTFGQGTKVEFKR 7.38

pKd for anti-ROR1 scFv ROR1-3 fused to murine IgG2a Fc (scFv-mFc) (Fc fusion, part only; not given: murine IgG2a Fc and junction, not shown: another chain or arm of the molecule; a dimerising Fc or GST) scFv: QVQLVQSGAEVKKPGASVKVSCKASGYTFTSYGISWVRQAPGQGLEWMGWISAYNGNTKYAQKLQGRVTMTTDTSTSTAYMELRSLRSDDTAVYYCARDEDILTGYNYYGMDVWGQGTTVTVSSGGGGSGGGGSGGGGSQLVLTQSPSASASLGASVKLTCTLSSGHSSYAIAWHQQQPEKGPRYLMKLNSDGSHSKGDGIPDRFSGSSSGAERYLTISSLQSEDEADYYCQTWGTGIRVFGGGTKLTVLG ? 9.03

If you can, please state the reported pKd value of anti-ROR1 scFv ROR1-4 fused to murine IgG2a Fc (scFv-mFc) (Fc fusion, part only; not given: murine IgG2a Fc and junction, not shown: another chain or arm of the molecule; a dimerising Fc or GST) scFv: QVQLLQSGAEVKKPGASVKVSCKASGYTFTSYGISWVRQAPGQGLEWMGWISAYTGNTRYAQKLQGRVTMTTDTSTSTAYMELRSLRSDDTAVYYCAREEGATTDYDYYGMDVWGQGTAVTVSSGGGGSGGGGSGGGGSQLVLTQSPSASASLGASVKLTCTLSSGHSSYAIAWHQQQPEKGPRYLMKLNSDGSHSKGDGIPDRFSGSSSGAERYLTISSLQSEDEADYYCQTWGTGIRVFGGGTKLTVLG . 7.86

The reported measurements were obtained from patent US20250242020A1.
